# Target Or System: MAL^TIR (Homo sapiens, UniProt P58753)
# Construct: MAL (residues 79–221); 6xHis; made in house; host or cells: E. coli BL21 (DE3)
# Sequence (P58753 79-221): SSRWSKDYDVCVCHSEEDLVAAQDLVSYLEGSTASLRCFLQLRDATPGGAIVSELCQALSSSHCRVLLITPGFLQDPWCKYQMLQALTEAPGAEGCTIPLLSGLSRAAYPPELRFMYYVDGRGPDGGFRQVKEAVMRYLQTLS
# Measurement Description: T‐Surf phage library (P8 and P3) selection against MAL^TIR, four rounds, NGS read counts
# Assay type: binding
# Condition Details: P3 library, 4R selection against MAL, rank before grouping
In plain terms, low P3_MAL Rank (before), meaning strictly below 3000, gives yes, and everything else gives no.

Take a look at these entries with their results.
| Residue String | Target Or System | Class Label |
| --- | --- | --- |
| SKDYAQSAWALAEHEKR | MAL^TIR (Homo sapiens, UniProt P58753) | no |
| NQWRNALSSIASRP | MAL^TIR (Homo sapiens, UniProt P58753) | no |
| PESGKLASGAGKSGQT | MAL^TIR (Homo sapiens, UniProt P58753) | yes |
| YAFTGHFHCCKLQRGV | MAL^TIR (Homo sapiens, UniProt P58753) | yes |
| NGHESELIKEIVVTIV | MAL^TIR (Homo sapiens, UniProt P58753) | no |
| RGFMSHLRHPLQAKDH | MAL^TIR (Homo sapiens, UniProt P58753) | yes |
| NQCSNALTGAAILSGW | MAL^TIR (Homo sapiens, UniProt P58753) | no |

Q: Please state whether P3_MAL Rank (before) is below 3000 for FLNFRGLGGRNYFLGH
Result: yes
